Tested on: RSK3(Kin.Dom.2-C-terminal)
Construct: gene RPS6KA2
setup_conditions: concentration: 1 μM,replicates: in singlicate; n = 1;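 also: KINOMEscan kinase panel screen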
recorded_endpoint: %Inh (%)
Please respond with the number in % and leave the unit unwritten.

Example results:
1) Cl.Cl.Nc1nc(-c2ccc3c(N)n[nH]c3c2)cc(N2CCCC(NC(=O)c3ccccc3)C2)n1 (centres unmarked) | 16
2) NC(=O)c1cc(-c2ccccc2)cc2c(C3CCNCC3)c[nH]c12 | 0
3) CCn1c(-c2nonc2N)nc2c(C#CC(C)(C)O)nc(OCCN)cc21.Cl.Cl | 0
4) CNC(=O)c1ccccc1Sc1ccc2c(/C=C/c3ccccn3)n[nH]c2c1 | 6

Pending compound:
Query string: # %Inh lookup, item Cc1n[nH]c2ccc(-c3cc(OC[C@@H](N)Cc4ccccc4)cnc3-c3ccoc3)cc12.O=C(O)C(F)(F)F.O=C(O)C(F)(F)F
Result string: 16

* * *

Test system: MUSK
setup_conditions: concentration: 1 μM,replicates: in singlicate; n = 1
recorded_endpoint: %Inh (%)
Please respond with the number in % and leave the unit unwritten.

Example results:
1. CCn1c(-c2nonc2N)nc2c(C#CC(C)(C)O)nc(OCCN)cc21.Cl.Cl | 20
2. Cc1ccc(-n2nc(C(C)(C)C)cc2NC(=O)Nc2ccc(OCCN3CCOCC3)c3ccccc23)cc1 | 0
3. CNC(=O)c1ccccc1Sc1ccc2c(/C=C/c3ccccn3)n[nH]c2c1 | 51
4. Cl.Cl.NC[C@H](Cc1ccc(C(F)(F)F)cc1)NC(=O)c1cc(Br)c(-c2ccnc3[nH]ccc23)s1 | 0
5. Cc1cc2cn[nH]c2cc1-c1cccc2c(N)c(C(N)=O)nnc12 | 0
6. Cc1occc1-c1nc(N)c(OC[C@@H](N)Cc2c[nH]c3ccccc23)cc1-c1cc2c(C)n[nH]c2cn1 | 9

Pending molecule:
Query string: For the record CC(C)Nc1cc(-c2ccc3c(N)n[nH]c3c2)nc(N)n1 , what value of %Inh is listed for MUSK?
Result string: 0

* * *

System: AURKB
setup_conditions: concentration: 1 μM,replicates: in singlicate; n = 1
recorded_endpoint: %Inh (%)
Please respond with the number in % and leave the unit unwritten.

Example results:
1) Cl.Oc1cc(-c2nc(-c3ccccc3)[nH]c2-c2ccncc2)ccc1Cl | 19
2) Cl.Cl.Nc1nc(-c2ccc3c(N)n[nH]c3c2)cc(N2CCCC(NC(=O)c3ccccc3)C2)n1 (stereo not shown) | 96.4
3) Nc1nc(Nc2ccccc2)cc(-c2ccc3c(N)n[nH]c3c2)n1 | 19
4) Cc1ccc2c(-c3ccncc3)c(-c3ccc(F)cc3)nn2c1.Cl | 0
5) Cc1n[nH]c2ccc(-c3cc(OC[C@@H](N)Cc4ccccc4)cnc3-c3ccoc3)cc12.O=C(O)C(F)(F)F.O=C(O)C(F)(F)F | 0
6) CCN(CC)CCCCNc1ncc2cc(-c3c(Cl)cccc3Cl)c(NC(=O)NC(C)(C)C)nc2n1 | 0
7) CN(C)CCOc1ccc(-c2cc(-c3c[nH]nc3-c3ccccn3)ccn2)cc1 | 5
8) COc1ccc(C[C@@H](CN)NC(=O)c2cc(Br)c(-c3ccnc4[nH]ccc34)s2)cc1.Cl.Cl | 86

Query string: # %Inh lookup, item CN(C)CC(O)COc1ccc(Nc2nccc(-c3cnn4nc(N5CCOCC5)ccc34)n2)cc1 (stereo not shown)
Result string: 84

Query string: # %Inh lookup, item C[C@@H]1CCN(C(=O)CC#N)C[C@@H]1N(C)c1ncnc2[nH]ccc12
Result string: 0

* * *

Tested on: RPS6KA5(Kin.Dom.1-N-terminal)
setup_conditions: concentration: 1 μM,replicates: in singlicate; n = 1
recorded_endpoint: %Inh (%)
Please respond with the number in % and leave the unit unwritten.

Example results:
1) Cc1cc(C(=O)Nc2ccc(Oc3ccc4nc(NC(=O)C5CC5)cn4n3)cc2)nn1-c1ccccc1 | 0
2) CC(C)Nc1cc(-c2ccc3c(N)n[nH]c3c2)nc(N)n1 | 0
3) C=CC(=O)Nc1cc2c(Nc3ccc(F)c(Cl)c3)ncnc2cc1OCCCN1CCOCC1 | 0
4) C[C@H]1Oc2cc(cnc2N)-c2c(nn(C)c2C#N)CN(C)C(=O)c2ccc(F)cc21 | 16

Query string: # %Inh lookup, item NC(=O)c1cc(-c2ccccc2)cc2c(C3CCNCC3)c[nH]c12
Result string: 12

Query string: # %Inh lookup, item CCN(CC)CCOc1ccc(Nc2ncc3cc(-c4c(Cl)cccc4Cl)c(=O)n(C)c3n2)cc1
Result string: 0

Query string: # %Inh lookup, item C[C@@H](Oc1cc(-c2cnn(C3CCNCC3)c2)cnc1N)c1c(Cl)ccc(F)c1Cl
Result string: 0

Query string: # %Inh lookup, item CN(C)CC(O)COc1ccc(Nc2nccc(-c3cnn4nc(N5CCOCC5)ccc34)n2)cc1 (centres unmarked)
Result string: 0

* * *

Below, each of the molecules is paired with its reported %Inh value.
System: MRCKB
Construct: gene CDC42BPB
setup_conditions: concentration: 1 μM,replicates: in singlicate; n = 1
Please respond with the number in % and leave the unit unwritten.

Example results:
1. Cc1ccc(-n2nc(C(C)(C)C)cc2NC(=O)Nc2ccc(OCCN3CCOCC3)c3ccccc23)cc1 | 49
2. Cc1cc2cn[nH]c2cc1-c1cccc2c(N)c(C(N)=O)nnc12 | 0

Query string: # %Inh lookup, item C=CC(=O)Nc1cc2c(Nc3ccc(F)c(Cl)c3)ncnc2cc1OCCCN1CCOCC1
Result string: 11

* * *

Test system: CAMKK1
setup_conditions: concentration: 1 μM,replicates: in singlicate; n = 1
Below, each of the molecules is paired with its reported %Inh value.
Please respond with the number in % and leave the unit unwritten.

Example results:
1. Nc1nc(Nc2ccccc2)cc(-c2ccc3c(N)n[nH]c3c2)n1 | 0
2. NC(=O)c1cc(-c2ccccc2)cc2c(C3CCNCC3)c[nH]c12 | 0
3. CC(C)Nc1cc(-c2ccc3c(N)n[nH]c3c2)nc(N)n1 | 0
4. Cc1ccc2c(-c3ccncc3)c(-c3ccc(F)cc3)nn2c1.Cl | 8

Query string: # %Inh lookup, item O=C(NCCNc1ccnc(NCc2ccc(F)cc2)n1)c1cc2ccccc2s1
Result string: 6

Query string: # %Inh lookup, item CCN(CC)CCCCNc1ncc2cc(-c3c(Cl)cccc3Cl)c(NC(=O)NC(C)(C)C)nc2n1
Result string: 15

Query string: # %Inh lookup, item O=C(NCCCN1CCOC1=O)c1cnc(NCc2cc(Cl)ccc2Cl)nc1NC1CCCC1
Result string: 4

Query string: # %Inh lookup, item COc1ccc(C[C@@H](CN)NC(=O)c2cc(Br)c(-c3ccnc4[nH]ccc34)s2)cc1.Cl.Cl
Result string: 66

Query string: # %Inh lookup, item CC(C)N1C(=O)Cc2cc(Nc3ncc(C(F)(F)F)c(NCc4cccc(S(C)(=O)=O)c4)n3)ccc21
Result string: 2

* * *

Test system: PFTK1
Construct: gene CDK14
setup_conditions: concentration: 1 μM,replicates: in singlicate; n = 1
recorded_endpoint: %Inh (%)
Please respond with the number in % and leave the unit unwritten.

Example results:
1. Cl.Oc1cc(-c2nc(-c3ccccc3)[nH]c2-c2ccncc2)ccc1Cl | 0
2. Cc1cc(C(=O)Nc2ccc(Oc3ccc4nc(NC(=O)C5CC5)cn4n3)cc2)nn1-c1ccccc1 | 0
3. CC(C)Nc1cc(-c2ccc3c(N)n[nH]c3c2)nc(N)n1 | 0
4. C[C@@H]1CCN(C(=O)CC#N)C[C@@H]1N(C)c1ncnc2[nH]ccc12 | 21
5. Cl.Cl.Nc1nc(-c2ccc3c(N)n[nH]c3c2)cc(N2CCCC(NC(=O)c3ccccc3)C2)n1 (stereo not drawn) | 18

Query string: # %Inh lookup, item Cc1ccc(-n2nc(C(C)(C)C)cc2NC(=O)Nc2ccc(OCCN3CCOCC3)c3ccccc23)cc1
Result string: 2

Query string: # %Inh lookup, item CCN(CC)CCOc1ccc(Nc2ncc3cc(-c4c(Cl)cccc4Cl)c(=O)n(C)c3n2)cc1
Result string: 0

Query string: # %Inh lookup, item Nc1nc(Nc2ccccc2)cc(-c2ccc3c(N)n[nH]c3c2)n1
Result string: 9

Query string: # %Inh lookup, item Cc1n[nH]c2ccc(-c3cc(OC[C@@H](N)Cc4ccccc4)cnc3-c3ccoc3)cc12.O=C(O)C(F)(F)F.O=C(O)C(F)(F)F
Result string: 9

Query string: # %Inh lookup, item Cc1occc1-c1nc(N)c(OC[C@@H](N)Cc2c[nH]c3ccccc23)cc1-c1cc2c(C)n[nH]c2cn1
Result string: 45

Query string: # %Inh lookup, item NC(=O)c1cc(-c2ccccc2)cc2c(C3CCNCC3)c[nH]c12
Result string: 17

Query string: # %Inh lookup, item CCN(CC)CCCCNc1ncc2cc(-c3c(Cl)cccc3Cl)c(NC(=O)NC(C)(C)C)nc2n1
Result string: 0

* * *

Tested on: TXK
setup_conditions: concentration: 1 μM,replicates: in singlicate; n = 1
Below, each of the molecules is paired with its reported %Inh value.
Please respond with the number in % and leave the unit unwritten.

1) CCN(CC)CCOc1ccc(Nc2ncc3cc(-c4c(Cl)cccc4Cl)c(=O)n(C)c3n2)cc1 | 99.5
2) NC(=O)c1cc(-c2ccccc2)cc2c(C3CCNCC3)c[nH]c12 | 0

Query string: # %Inh lookup, item COc1ccc(C[C@@H](CN)NC(=O)c2cc(Br)c(-c3ccnc4[nH]ccc34)s2)cc1.Cl.Cl
Result string: 30

Query string: # %Inh lookup, item Cc1ccc2c(-c3ccncc3)c(-c3ccc(F)cc3)nn2c1.Cl
Result string: 0

Query string: # %Inh lookup, item CCn1c(-c2nonc2N)nc2c(C#CC(C)(C)O)nc(OCCN)cc21.Cl.Cl
Result string: 36

Query string: # %Inh lookup, item Cl.Oc1cc(-c2nc(-c3ccccc3)[nH]c2-c2ccncc2)ccc1Cl
Result string: 42

Query string: # %Inh lookup, item C=CC(=O)Nc1cc2c(Nc3ccc(F)c(Cl)c3)ncnc2cc1OCCCN1CCOCC1
Result string: 82

Query string: # %Inh lookup, item CN(C)CCOc1ccc(-c2cc(-c3c[nH]nc3-c3ccccn3)ccn2)cc1
Result string: 8
